- System: CCRIS mutagenicity, Ames/micronucleus/aberration tests
- Measurement description: CCRIS mutagenicity studies
- Cond: Test System: AMES SALMONELLA TYPHIMURIUM; Strain/Indicator: TA1537; Metabolic Activation: RAT, LIVER, S-9, AROCLOR 1254 (10%); Method: PREINCUBATION
Active and inactive are the calls of the source. No rule for the calls is given here.
In this exercise, the only acceptable responses are True (active), False (inactive)

Worked examples follow.
Molecule: CCC[CH2][Sn]([CH2]CCC)([O]C(C)=O)[O]C(C)=O
Qualitative label: False

Molecule: S=C1NCCN1
Qualitative label: False

Molecule: CCCNC(=O)NS(=O)(=O)c1ccc(Cl)cc1
Qualitative label: False

Molecule: NCCCN
Qualitative label: False

Molecule: CC(=O)/C(C)=N/O
Qualitative label: False

q: Name the outcome recorded for CC(C)CC(C)Nc1ccc(Nc2ccccc2)cc1 (stereo not given) in the assay.
a: False

q: Now the molecule Cc1c(C)c(Br)c(Br)c(Br)c1Br
a: False

q: Now the molecule CN(C)CCCN1c2ccccc2Sc2ccc(Cl)cc21
a: True

q: Now the molecule CCOC(=O)c1ccccc1C(=O)OCC
a: False

q: Now the molecule CCOC(=O)c1ccccc1N
a: False

q: Now the molecule C=CCOC(=O)c1ccccc1N
a: False

q: Now the molecule Cc1cccc(C)c1N
a: False

q: Now the molecule C[N+](=O)[O-]
a: False

q: Now the molecule CN(C)CCN(Cc1ccc(Cl)s1)c1ccccn1
a: False

q: Now the molecule CCCCC/C=C\C/C=C\CCCCCCCC(=O)O
a: False

----------
- Test system: CCRIS mutagenicity, Ames/micronucleus/aberration tests
- Measurement description: CCRIS mutagenicity studies
- Cond: Test System: AMES SALMONELLA TYPHIMURIUM; Strain/Indicator: TA7006; Metabolic Activation: NONE; Method: PREINCUBATION
The source made the active and inactive calls. No rule for the calls is given here.
In this exercise, the only acceptable responses are T = active, F = inactive

Mol: O=[N+]([O-])c1ccc2c(ccc3ccccc32)c1
Qualitative label: T
--
Mol: O=[N+]([O-])c1ccc2c3c(cccc13)-c1ccccc1-2
Qualitative label: T
--
Mol: O=c1oc2ccc([N+](=O)[O-])cc2c2ccccc12
Qualitative label: F

q: Name the outcome recorded for O=[N+]([O-])c1ccc2c(ccc3cc([N+](=O)[O-])ccc32)c1 in the assay.
a: T

----------
- Tested on: CCRIS mutagenicity, Ames/micronucleus/aberration tests
- Measurement description: CCRIS mutagenicity studies
- Cond: Test System: AMES SALMONELLA TYPHIMURIUM; Strain/Indicator: TA97A; Metabolic Activation: RAT, LIVER, S-9, AROCLOR 1254; Method: STANDARD PLATE
The source made the active and inactive calls. The rule behind the calls is not given here.
In this exercise, the only acceptable responses are Y = active, N = inactive

Worked examples follow.
Mol: COCC=O
Qualitative label: Y
//
Mol: CCOCCO
Qualitative label: N

We next turn to a different compound, shown below.
q: Name the outcome recorded for Cc1cc2nc3ccc(=[N+](C)C)cc-3sc2cc1N in the assay.
a: Y

----------
- System: CCRIS mutagenicity, Ames/micronucleus/aberration tests
- Measurement description: CCRIS mutagenicity studies
- Cond: Test System: AMES SALMONELLA TYPHIMURIUM; Strain/Indicator: TA1537; Metabolic Activation: S-9; Method: STANDARD PLATE
Activity calls are given as the source filed them. The rule behind the calls is not given here.
In this exercise, the only acceptable responses are True (active), False (inactive)

Molecule: CC(=O)Nc1snc2ccccc12
Tested on: CCRIS mutagenicity, Ames/micronucleus/aberration tests
Qualitative label: True
--
Molecule: Nc1snc2ccc([N+](=O)[O-])cc12
Tested on: CCRIS mutagenicity, Ames/micronucleus/aberration tests
Qualitative label: True
--
Molecule: Cc1snc2ccccc12
Tested on: CCRIS mutagenicity, Ames/micronucleus/aberration tests
Qualitative label: False
--
Molecule: O=[N+]([O-])c1cccc2csnc12
Tested on: CCRIS mutagenicity, Ames/micronucleus/aberration tests
Qualitative label: False
--
Molecule: O=c1[nH]c(=O)n([C@H]2C[C@H](O)[C@@H](CO)O2)cc1Br
Tested on: CCRIS mutagenicity, Ames/micronucleus/aberration tests
Qualitative label: False
--
Molecule: CN(N=O)C(=O)c1c(N(C)N=O)ncn1C
Tested on: CCRIS mutagenicity, Ames/micronucleus/aberration tests
Qualitative label: False
--
Molecule: COC1(O[C@H]2CC[C@H]3[C@@H]4CC[C@H]5C[C@@H]6S[C@@H]6C[C@]5(C)[C@H]4CC[C@]23C)CCCC1
Tested on: CCRIS mutagenicity, Ames/micronucleus/aberration tests
Qualitative label: False
--
Molecule: Cc1cccc(OCC(O)CNC(C)(C)C)c1C (stereo unspecified)
Tested on: CCRIS mutagenicity, Ames/micronucleus/aberration tests
Qualitative label: False
--
Molecule: CCCCCNc1snc2ccccc12
Tested on: CCRIS mutagenicity, Ames/micronucleus/aberration tests
Qualitative label: False
--
Molecule: CNc1snc2ccccc12
Tested on: CCRIS mutagenicity, Ames/micronucleus/aberration tests
Qualitative label: False

q: Name the outcome recorded for Cc1ccc2nsc(NC(=O)C(Cl)Cl)c2c1 in the assay.
a: True

q: Now the molecule CCCCCCNC(=O)n1cc(F)c(=O)[nH]c1=O
a: False

q: Now the molecule O=C(CCl)Nc1snc2ccc(Cl)cc12
a: True

q: Now the molecule CC(=O)O[C@@H]1C(=O)O[C@H]2[C@@H]1OC(=O)[C@@H]2OC(C)=O
a: False

q: Now the molecule Nc1snc2c(Cl)cc(Cl)cc12
a: True

q: Now the molecule CCOC(=O)C1(CCCCCCOCc2cccs2)CO1 (stereo unspecified)
a: False

Numbers sourced from PubChem BioAssay AID1259407.
